# targetOrTestSystem: recombinant human NSD1 (Homo sapiens)
# assayName: NSD1 inhibitory assay
# protocolConditions: 2 nM NSD1, chicken oligonucleosomes 0.05 mg/ml, 3H-SAM 1 μM, 1 hour at 30° C.
pIC50: −log10 of the molar value.
measurementType: pIC50

{"columns": ["molecule", "targetOrTestSystem", "measurementType", "reportedMeasurement"],
 "data": [
  ["COC(=O)COc1cc(F)c(-c2cc(Cn3cnc4c(N)ncnc43)c(N3CCC[C@](N)([C@H](O)C(F)F)C3)cn2)cc1F [III-35]", "recombinant human NSD1 (Homo sapiens)", "pIC50", "> 9.00"]
]}

Values were extracted from patent US20250011329A1.
